Assignment: determine reported IC50 for the given compounds.
Biological target: hPAD4 enzyme (Homo sapiens)
Sequence (Q9UM07 whole entry): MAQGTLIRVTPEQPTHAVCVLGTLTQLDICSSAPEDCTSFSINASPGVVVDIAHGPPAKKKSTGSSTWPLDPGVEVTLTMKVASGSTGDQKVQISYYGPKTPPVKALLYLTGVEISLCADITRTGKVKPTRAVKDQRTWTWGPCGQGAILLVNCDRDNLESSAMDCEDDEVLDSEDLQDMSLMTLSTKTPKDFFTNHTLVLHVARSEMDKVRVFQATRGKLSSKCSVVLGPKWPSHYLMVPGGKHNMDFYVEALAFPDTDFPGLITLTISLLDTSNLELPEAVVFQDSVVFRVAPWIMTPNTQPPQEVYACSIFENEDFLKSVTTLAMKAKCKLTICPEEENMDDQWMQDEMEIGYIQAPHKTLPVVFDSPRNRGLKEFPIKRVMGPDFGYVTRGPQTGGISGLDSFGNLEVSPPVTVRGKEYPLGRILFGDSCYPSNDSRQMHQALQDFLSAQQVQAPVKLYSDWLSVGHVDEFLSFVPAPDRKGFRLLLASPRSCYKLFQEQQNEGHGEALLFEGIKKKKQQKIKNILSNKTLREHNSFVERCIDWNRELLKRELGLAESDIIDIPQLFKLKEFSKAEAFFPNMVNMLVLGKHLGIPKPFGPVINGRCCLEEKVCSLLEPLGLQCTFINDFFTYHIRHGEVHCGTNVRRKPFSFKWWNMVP
Assay: RFMS Assay 1 (rapid-fire mass spectrum PAD4 inhibition assay, BAEE substrate)
Type: biochemical
Conditions: 5 nM hPAD4 enzyme, 250 μM BAEE, 30 mins compound and enzyme preincubation at 37° C., 90 min enzyme/substrate reaction

What does the record list as IC50 for Cc1cn(CCOc2cccc3cc(-c4nc5cc6c(nc5n4C)CCN(C[C@H](N)CF)C6=O)n(CC4CC4)c23)cn1 ?
11 to 100 nM

Entry to check: COc1cccc2cc(-c3nc4cc5c(nc4n3C)CCN(C[C@H]3COCCN3)C5=O)n(CC3(F)CC3)c12
101 to 500 nM

Entry to check: C[C@@H](N)CN1CCc2nc3c(cc2C1=O)nc(-c1cc2ccccc2n1CC1CC1)n3C
11 to 100 nM

Entry to check: COCC(=O)N1CCC(c2cccc3cc(-c4nc5cc6c(nc5n4C)CCN(C[C@H](N)CF)C6=O)n(CC4CC4)c23)CC1
11 to 100 nM

Entry to check: COCCn1c(-c2nc3cc4c(nc3n2C)CCN(C[C@H](N)CF)C4=O)cc2cccc(OC(F)Cn3ccnc3)c21 (single isomer, unassigned) [Example 77b]
11 to 100 nM

Entry to check: COc1cccc2cc(-c3nc4cc5c(nc4n3C)CCN(C[C@H](N)CF)C5=O)n(CC3(F)CC3)c12
11 to 100 nM

Entry to check: Cn1c(-c2cc3cccc(OC(C)(F)Cn4ccnc4)c3n2CC2CC2)nc2cc3c(nc21)CCN(C[C@H](N)CF)C3=O (single isomer, unassigned) [Example 76b]
11 to 100 nM

Entry to check: Cn1c(-c2cc3cccc(OCC(F)n4ccnc4)c3n2CC2CC2)nc2cc3c(nc21)CCN(C[C@H](N)CF)C3=O (single isomer, unassigned) [Example 79a]
11 to 100 nM

Entry to check: COc1cc(F)cc2cc(-c3nc4cc5c(nc4n3C)CCN(C[C@H](N)CF)C5=O)n(Cc3ccno3)c12
101 to 500 nM

Entry to check: Cn1c(-c2cc3cccc(OCCc4cccnc4)c3n2CC2CC2)nc2cc3c(nc21)CCN(C[C@H](N)CF)C3=O
≤ 10 nM

Entry to check: Cn1c(-c2cc3cccc(OCC(O)c4cnco4)c3n2CC2CC2)nc2cc3c(nc21)CCN(C[C@H](N)CF)C3=O (single isomer, unassigned) [Example 61a]
101 to 500 nM

Entry to check: CC(C(F)Oc1cccc2cc(-c3nc4cc5c(nc4n3C)CCN(C[C@H](N)CF)C5=O)n(CC3CC3)c12)n1ccnc1 (single isomer, unassigned) [Example 78d]
11 to 100 nM

Entry to check: C[C@H](COc1cccc2cc(-c3nc4cc5c(nc4n3C)CCN(C[C@H](N)CF)C5=O)n(CC3CC3)c12)n1cncc1C#N
101 to 500 nM

Entry to check: COc1cccc2cc(-c3nc4cc5c(nc4n3C)CCN(C[C@H](N)CF)C5=O)n(CC3CC3)c12
101 to 500 nM

Entry to check: Cn1c(-c2cc3cccc(OCCc4cnco4)c3n2CC2CC2)nc2cc3c(nc21)CCN(C[C@H](N)CF)C3=O
≤ 10 nM

Entry to check: C[C@H](COc1cccc2cc(-c3nc4cc5c(nc4n3C)CCN(C[C@@H](C)N)C5=O)n(CC3CC3)c12)n1cnc(F)c1
≤ 10 nM

Entry to check: Cn1c(-c2cc3cccc(OC(F)Cn4ccnc4)c3n2CC2CC2)nc2cc3c(nc21)CCN(C[C@H](N)CF)C3=O (single isomer, unassigned) [Example 74b]
≤ 10 nM

Entry to check: Cn1c(-c2cc3cccc(OCCc4cnn[nH]4)c3n2CC2CC2)nc2cc3c(nc21)CCN(C[C@H](N)CF)C3=O
≤ 10 nM

Entry to check: C[C@H](COc1nccc2cc(-c3nc4cc5c(nc4n3C)CCN(C[C@H](N)CF)C5=O)n(CC3CC3)c12)n1cnc(F)c1
≤ 10 nM

Entry to check: CO[C@H](C)C(=O)N1CCC(c2cccc3cc(-c4nc5cc6c(nc5n4C)CCN(C[C@H](N)CF)C6=O)n(CC4CC4)c23)CC1
11 to 100 nM

Entry to check: Cn1c(-c2cc3cccc(OCCn4ccnc4C#N)c3n2CC2CC2)nc2cc3c(nc21)CCN(C[C@H](N)CF)C3=O
101 to 500 nM

Entry to check: C[C@@H](COc1cccc2cc(-c3nc4cc5c(nc4n3C)CCN(C[C@H](N)CF)C5=O)n(CC3CC3)c12)n1cnc(C#N)c1
11 to 100 nM

Entry to check: Cn1c(-c2cc3cccc(OCCn4ccnc4Cl)c3n2CC2CC2)nc2cc3c(nc21)CCN(C[C@H](N)CF)C3=O
11 to 100 nM

Entry to check: Cn1c(-c2cc3cccc(OCCc4cnoc4)c3n2CC2CC2)nc2cc3c(nc21)CCN(C[C@H](N)CF)C3=O
≤ 10 nM

Entry to check: CC(COc1cccc2cc(-c3nc4cc5c(nc4n3C)CCN(C[C@H](N)CF)C5=O)n(CC3CC3)c12)c1cccnc1 (single isomer, unassigned) [Example 45a]
≤ 10 nM

Entry to check: Cn1c(-c2cc3ccnc(OC[C@@H]4CNC(=O)C4)c3n2CC2CC2)nc2cc3c(nc21)CCN(C[C@H](N)CF)C3=O
101 to 500 nM
